These measurements were taken from patent US11149031B2.

# study-target: His6-ERα298-554 WT (ERα ligand-binding domain) (Homo sapiens (Human), UniProt P03372)
# Sequence (P03372 298-554): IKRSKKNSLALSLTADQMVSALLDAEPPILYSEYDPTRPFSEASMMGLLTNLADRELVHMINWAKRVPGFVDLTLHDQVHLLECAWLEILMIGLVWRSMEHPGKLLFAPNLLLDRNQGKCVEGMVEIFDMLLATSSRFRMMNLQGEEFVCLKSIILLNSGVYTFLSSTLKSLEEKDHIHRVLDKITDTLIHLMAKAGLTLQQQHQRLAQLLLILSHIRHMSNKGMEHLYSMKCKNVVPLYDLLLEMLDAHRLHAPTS
# assay-procedure: Test A: biochemical antagonist activity, LanthaScreen TR-FRET ERα coactivator assay, WT
# condition-label: protocol with 3 nM estradiol; read-out: Antagonism WT IC50
pIC50: −log10 of the molar value.
Think of 8 as a floor: if pIC50 stands on it or above, it is Criterion met; beneath it, Criterion not met.

Past entries and their recorded results:
>>> df
                                   molecule           category
0  Oc1ccc(C2=C(c3ccc(O[C@H]4CCN(CCCF)C4)cc3)c3cc(O)ccc3CC2)c(F)c1 [Example 6]      Criterion met
1  Cc1c(Cl)cccc1C1=C(c2ccc(O[C@H]3CCN(CCCF)C3)cc2)c2ccc(O)cc2SCC1 [Example 163]      Criterion met
2  Oc1ccc2c(c1)C(c1ccc(O[C@H]3CCN(CCCF)C3)cc1)=C(c1cccc(F)c1Cl)CCS2 [Example 170]  Criterion not met

Q. Given Cc1cc2c(cc1O)OCCC(c1cccc(O)c1)=C2c1ccc(O[C@H]2CCN(CCCF)C2)cc1 [Example 136] , state whether its pIC50 is at least 8.
A. Criterion met

Q. Given Oc1ccc2c(c1F)OCCC(c1ccc3c(c1)NCC3)=C2c1ccc(O[C@H]2CCN(CCCF)C2)cc1 [Example 132] , state whether its pIC50 is at least 8.
A. Criterion not met

Q. Given Cc1cc(F)ccc1C1=C(c2ccc(O[C@H]3CCN(CCCF)C3)cc2)c2ccc(O)cc2SCC1 [Example 165] , state whether its pIC50 is at least 8.
A. Criterion met
